- Measured target: KRas^G12V (Homo sapiens, UniProt P01116, G12V)
- Construct: Biotinylated KRas (corresponding to amino acids 1-169, produced at Accelegan Inc.); biotin (biotinylated); purchased Accelegan Inc
- Sequence (P01116 1-169 isoform P01116-2 G12V): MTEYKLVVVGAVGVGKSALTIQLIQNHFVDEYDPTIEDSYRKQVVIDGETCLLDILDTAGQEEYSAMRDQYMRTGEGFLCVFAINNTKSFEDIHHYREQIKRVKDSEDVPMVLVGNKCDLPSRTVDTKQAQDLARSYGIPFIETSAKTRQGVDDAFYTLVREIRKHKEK
- Run description: KRas binding assay (TR-FRET tracer displacement), KRas G12V
Provide the reported log10 IC50 of each item.
A value of 2 here means IC50 of 100 in nM, since values are log10.

**Q:** Fill in log10 IC50 for record `CCc1c(F)ccc2cc(O)cc(-c3ncc4c(N5CCCS(=O)(=O)CC5)nc(OC[C@@]56CCCN5C[C@H](F)C6)nc4c3F)c12`
**A:** 1.15

**Q:** Return reported log10 IC50. Input compound: `CCc1c(F)ccc2cc(O)cc(-c3ncc4c(N5Cc6c(C(=O)N(C)C)nn(C)c6C5)nc(OC[C@@]56CCCN5C[C@H](F)C6)nc4c3F)c12`
**A:** 1.99

**Q:** Please report the measured log10 IC50 for `CCc1c(F)ccc2cc(O)cc(-c3ncc4c(N5C[C@@H]6C[C@H](C5)[C@H](O)C6)nc(OC[C@@]56CCCN5C[C@@H](F)C6)nc4c3F)c12`
**A:** 0.60

**Q:** Report measured log10 IC50; entry is `C[C@@]1(O)CCCN(c2nc(OC[C@@]34CCCN3C[C@H](F)C4)nc3c(F)c(-c4ccc(F)c5sc(N)c(C#N)c45)ncc23)C1`
**A:** 1.84

**Q:** Give log10 IC50 for `CCc1c(F)ccc2cc(O)cc(-c3ncc4c(N[C@@H]5C[C@@H](C)S(=O)(=O)[C@@H](C)C5)nc(OC[C@@]56CCCN5C[C@H](F)C6)nc4c3F)c12`
**A:** 1.97

**Q:** Return reported log10 IC50. Input compound: CCc1c(F)ccc2cc(O)cc(-c3ncc4c(N5CC6CCC(C5)C6(O)C(F)(F)F)nc(OC[C@@]56CCCN5C[C@H](F)C6)nc4c3F)c12 (stereo partly drawn)
**A:** 1.90

**Q:** Specify log10 IC50 for `CCc1c(F)ccc2cc(O)cc(-c3ncc4c(N5CCO[C@@H](CS(N)(=O)=O)C5)nc(OC[C@@]56CCCN5C[C@H](F)C6)nc4c3F)c12` and stop.
**A:** 0.48

**Q:** Read off the recorded log10 IC50 for `CCc1c(F)ccc2cc(O)cc(-c3ncc4c(NCc5cn(C(=O)N(C)C)nc5N)nc(OC[C@@]56CCCN5C[C@H](F)C6)nc4c3F)c12`
**A:** 0.30

**Q:** Give the reported value of log10 IC50 for this record: `CCc1c(F)ccc2cc(O)cc(-c3ncc4c(N[C@H](C)CN5CC(C)(O)C5)nc(OC[C@@]56CCCN5C[C@H](F)C6)nc4c3F)c12`
**A:** 2.78

**Q:** Determine its reported log10 IC50: `CCc1c(F)ccc2cc(O)cc(-c3ncc4c(SCc5cc(C(=O)N(C)C)nn5C)nc(OC[C@@]56CCCN5C[C@H](F)C6)nc4c3F)c12`
**A:** 1.30

**Q:** Tell me measured log10 IC50 for CCc1c(F)ccc2cc(O)cc(-c3ncc4c(N5CCC[C@@](C)(O)C5)nc(OCC5(CN(C)C)C(C)C5C)nc4c3F)c12 (stereo partly drawn) please.
**A:** 0.48

**Q:** Answer with the recorded log10 IC50 of `CCc1c(F)ccc2cc(O)cc(-c3ncc4c(N5CCC[C@@](C)(O)C5)nc(OC[C@]56CCCN5[C@@H](CNS(=O)(=O)N(C)C)CC6)nc4c3F)c12` only.
**A:** 0.48

**Q:** Answer with the recorded log10 IC50 for the compound listed here: CCc1c(F)ccc2cc(O)cc(-c3ncc4c(N5CCCOC(CCOC)C5)nc(OC[C@@]56CCCN5C[C@H](F)C6)nc4c3F)c12 (stereo partly drawn)
**A:** 1.08

**Q:** Please report log10 IC50 for the following compound: `CN(C)C(=O)c1cc2n(n1)CCCN(c1nc(OC[C@@]34CCCN3C[C@H](F)C4)nc3c(F)c(-c4c5ccccc5cc5[nH]ncc45)ncc13)C2`
**A:** 1.36

**Q:** Query log10 IC50 for CCc1cccc2cc3[nH]ncc3c(-c3ncc4c(N5CCCC6(CC(=O)N6)C5)nc(OC[C@@]56CCCN5C[C@H](F)C6)nc4c3F)c12 (stereo partly drawn)
**A:** 0.60

**Q:** Look up log10 IC50 of CCc1c(F)ccc2cc(O)cc(-c3ncc4c(NCC5CNC(=O)CO5)nc(OC[C@@]56CCCN5C[C@H](F)C6)nc4c3F)c12 (stereo partly drawn) and report it.
**A:** 0.30

**Q:** Quote log10 IC50 reported for CCc1c(F)ccc2cc(O)cc(-c3ncc4c(N5CCCCC(S(N)(=O)=O)C5)nc(OC[C@@]56CCCN5C[C@H](F)C6)nc4c3F)c12 (stereo partly drawn) please.
**A:** 3.45

**Q:** Complete the entry with log10 IC50 for `CCc1c(F)ccc2cc(O)cc(-c3ncc4c(NCc5cn(C(=O)N(C)C)nc5NC(C)=O)nc(OC[C@@]56CCCN5C[C@H](F)C6)nc4c3F)c12`
**A:** 0.48

# credit: patent US20260015350A1
